Test system: MCF7 breast
Experiment: NCI-60 one-dose screen, 48 h (100 = growth as untreated, 0 = no growth, -100 = all killed)
Settings: 10 µM unless noted
About 83,000 compounds went through this panel and 20% of them were active in at least one assay; those are over-represented in the sample as a whole.
Threshold rule: growth greater than or equal to 30% is Y; below that, N.

Request: # bool: growth of CN(C)CCC(CCN(C)C)(C(=O)O)c1ccccc1 >= 30%
Response: Y

Request: Entry to check: CC(C)(C)CC(C)(C)Nc1c(-c2c(O)c3ccccc3oc2=O)nc2sc3ccccc3n12
Response: N

Request: Entry to check: O=c1oc2c(cc1-c1ccccc1)c(=O)[nH]c1ccccc12
Response: Y

Request: Entry to check: O=S(=O)(N=C1C(Cl)=C(Cl)C(=NS(=O)(=O)c2ccccc2)C(Cl)=C1Cl)c1ccccc1
Response: Y

Request: Entry to check: CCOC(=O)C1=C(CC(O)c2ccc(OC)cc2OC)NC(=O)NC1c1ccccc1 (stereo not given)
Response: Y

Request: Entry to check: COc1ccc(C/C(C)=C(\c2ccc(Cl)cc2)c2ccc(OCCCN(C)C)cc2)cc1
Response: N

Request: Entry to check: c1ccc(-c2nc3ccccc3[nH]2)c(OCCCCCOc2ccccc2-c2nc3ccccc3[nH]2)c1
Response: N

Request: Entry to check: Fc1cccc(CNc2c3ccccc3nc3ccccc23)c1
Response: N

Request: Entry to check: CCn1cc(Cc2cc(C(=O)Nc3cc4cc(OC)c(OC)cc4c(C)n3)ccc2Cl)cn1
Response: N

Request: Entry to check: COc1ccc(C(=O)C/C(=C\c2ccc(O)c(OC)c2)C(=O)NN)cc1
Response: Y

Data origin: PubChem BioAssay (NCI)
